Numbers sourced from the supplement of paper PMC6555819.

tested on: RXRa DBDmut IVT, anti-RXR (DBD mutation: RXRa K156A/R161A, NR concentration 90 nM); test: PBM binding z-score (relative to random genomic background probes); higher = stronger binding; sequences stand for … in GC…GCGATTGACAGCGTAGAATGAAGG
Property Name: PBM binding z-score

Chain Sequence	Observed Measurement
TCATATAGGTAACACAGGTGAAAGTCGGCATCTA	1.73
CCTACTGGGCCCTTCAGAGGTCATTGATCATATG	-0.326
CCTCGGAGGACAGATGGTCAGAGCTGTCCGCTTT	-0.0448
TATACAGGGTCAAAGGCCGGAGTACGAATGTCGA	2.94
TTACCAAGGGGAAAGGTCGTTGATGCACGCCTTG	0.0883
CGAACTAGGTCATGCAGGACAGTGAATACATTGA	1.87
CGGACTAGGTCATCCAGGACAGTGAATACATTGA	1.7
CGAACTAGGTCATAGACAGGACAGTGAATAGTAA	1.6
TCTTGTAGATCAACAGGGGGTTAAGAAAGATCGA	1.89
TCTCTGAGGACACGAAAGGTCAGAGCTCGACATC	1.55
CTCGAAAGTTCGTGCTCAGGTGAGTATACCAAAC	2.83
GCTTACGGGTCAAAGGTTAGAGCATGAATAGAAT	2.02
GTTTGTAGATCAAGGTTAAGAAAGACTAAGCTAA	0.638
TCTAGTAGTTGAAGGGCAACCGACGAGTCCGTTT	1.02
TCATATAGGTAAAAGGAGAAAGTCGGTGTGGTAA	1.49
GGTACGAGGGCATTCGAGTTGATAGCATGGCGAT	3.01
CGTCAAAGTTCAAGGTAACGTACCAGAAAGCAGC	4.5
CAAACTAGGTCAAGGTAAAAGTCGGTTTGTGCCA	1.52
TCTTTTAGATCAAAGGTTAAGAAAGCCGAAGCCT	1.32
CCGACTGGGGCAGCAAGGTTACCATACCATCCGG	-0.746
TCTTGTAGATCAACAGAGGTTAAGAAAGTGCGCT	0.665
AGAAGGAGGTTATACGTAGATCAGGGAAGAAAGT	0.234
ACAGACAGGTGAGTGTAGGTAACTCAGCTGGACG	-0.328
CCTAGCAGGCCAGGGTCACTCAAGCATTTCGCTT	0.493
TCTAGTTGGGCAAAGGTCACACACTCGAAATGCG	1.44
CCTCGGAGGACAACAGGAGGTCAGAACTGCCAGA	0.497
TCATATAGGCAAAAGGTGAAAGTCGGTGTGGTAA	1.45
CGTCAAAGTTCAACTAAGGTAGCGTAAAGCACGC	4.42
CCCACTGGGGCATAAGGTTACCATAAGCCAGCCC	-1.4
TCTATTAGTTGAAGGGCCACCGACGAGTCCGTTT	1.69
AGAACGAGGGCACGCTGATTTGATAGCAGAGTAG	1.63
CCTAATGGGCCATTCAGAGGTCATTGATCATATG	1.45
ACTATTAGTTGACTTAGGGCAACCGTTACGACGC	1.01
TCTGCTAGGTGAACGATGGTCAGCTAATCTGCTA	-0.282
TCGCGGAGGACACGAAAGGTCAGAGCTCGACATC	0.362
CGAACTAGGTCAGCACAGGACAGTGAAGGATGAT	0.563
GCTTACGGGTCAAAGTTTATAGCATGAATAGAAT	3.19
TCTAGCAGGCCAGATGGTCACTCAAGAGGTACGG	-0.141
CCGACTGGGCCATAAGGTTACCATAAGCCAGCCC	-0.727
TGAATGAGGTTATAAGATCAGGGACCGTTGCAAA	0.574
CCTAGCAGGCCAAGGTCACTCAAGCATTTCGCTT	1.05
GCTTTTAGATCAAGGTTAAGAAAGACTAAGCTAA	0.874
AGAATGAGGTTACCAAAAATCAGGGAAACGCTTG	1.07
